B1: NELF-E aptamer (parent)
chain: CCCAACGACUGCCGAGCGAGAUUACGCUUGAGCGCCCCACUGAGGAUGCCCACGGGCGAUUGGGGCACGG

# Variants of: B1
# method-notes: HiTS-RAP
# measurement-conditions: with NELF-E (Drosophila)
property-name: pKd
The value called pKd is obtained by taking minus log10 of the concentration in mol/L.

seq-text: CCCAACGACUGCCGAGCGAGAUGGCGCUUGAGCGCCCCACUGAGGAUGCCCACGGGCGAUUGGGGCACGG [U23G A24G]
pKd: 8.22
--
seq-text: CCCAGCGAGUGCCGAGCGAGAUUACGCUUGAGCGCCCCACUGAGGAUGCCCACGGGCGAUUGGGGCACGG [A5G C9G]
pKd: 8.22
--
seq-text: CCCAACGACUUCCGAGCGAGUUUACGCUUGAGCGCCCCACUGAGGAUGCCCACGGGCGAUUGGGGCACGG [G11U A21U]
pKd: 8.23
--
seq-text: CCCAACGAGUUCCGAGCGAGAUUACGCUUGAGCGCCCCACUGAGGAUGCCCACGGGCGAUUGGGGCACGG [C9G G11U]
pKd: 8.22
--
seq-text: CCCAACGACUGCCAAGCGAGAUUACGCUUGGGCGCCCCACUGAGGAUGCCCACGGGCGAUUGGGGCACGG [G14A A31G]
pKd: 8.23

Entry CCCAACGACUGCCGAGCGAGAUGACGCUUGAGUGCCCCACUGAGGAUGCCCACGGGCGAUUGGGGCACGG [U23G C33U] — recorded pKd = 8.22

Reported pKd of CCCGACGACUGCCGAGCGAGAUUAGGCUUGAGCGCCCCACUGAGGAUGCCCACGGGCGAUUGGGGCACGG [A4G C25G] : 8.22

Value of measured pKd for the entry CCCAACGACGGCCGUGCGAGAUUACGCUUGAGCGCCCCACUGAGGAUGCCCACGGGCGAUUGGGGCACGG [U10G A15U] : 8.22
